Every entry's value here was drawn from the supplement of paper PMC4166925.

- Test system: SpTbr T-box DNA-binding domain (GST fusion);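 note: protein at 200 nM in PBS on universal double-stranded arrays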
- Sequence: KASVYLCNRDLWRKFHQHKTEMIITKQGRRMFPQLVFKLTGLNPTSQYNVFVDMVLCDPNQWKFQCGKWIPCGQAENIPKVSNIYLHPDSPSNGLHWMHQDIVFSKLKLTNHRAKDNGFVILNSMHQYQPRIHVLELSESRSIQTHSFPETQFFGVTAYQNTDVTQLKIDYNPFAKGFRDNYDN
- experimental-details: PBM E-score of 8-mer (E-score (dimensionless, -0.5 to 0.5)); higher = stronger binding preference
- condition-description: the construct has about 5 more residues each side
The full ranking holds about 33,000 sequences; the median of “E-score (dimensionless, -0.5 to 0.5)” is about -0.046, and the highest 2% start at about 0.36. What follows is part of a selection rich in the highest values, with near analogues and random picks from the rest.
Label Yes when PBM E-score of 8-mer is at or above 0.004; anything below gets No.

{"ordered-residues": "ATGGACAA", "class-label": "Yes"}
{"ordered-residues": "CGTGTCAC", "class-label": "Yes"}
{"ordered-residues": "CACTCAGG", "class-label": "No"}
{"ordered-residues": "AGTGTCAC", "class-label": "Yes"}
{"ordered-residues": "CTGTGAGA", "class-label": "Yes"}
{"ordered-residues": "ACTCGCTC", "class-label": "No"}
{"ordered-residues": "GTGTGAGA", "class-label": "Yes"}

====

Entries and their measured PBM E-score of 8-mer follow.
- Test system: SpTbr T-box DNA-binding domain (GST fusion);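 note: protein at 200 nM in PBS on universal double-stranded arrays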
- Sequence: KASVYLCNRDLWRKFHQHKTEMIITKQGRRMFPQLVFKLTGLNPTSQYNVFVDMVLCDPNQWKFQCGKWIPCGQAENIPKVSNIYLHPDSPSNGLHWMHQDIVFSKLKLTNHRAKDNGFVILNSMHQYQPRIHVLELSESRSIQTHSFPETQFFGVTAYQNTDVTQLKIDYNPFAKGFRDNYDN
- experimental-details: PBM E-score of 8-mer (E-score (dimensionless, -0.5 to 0.5)); higher = stronger binding preference
- condition-description: target sequence: T-box / the construct has about 5 more residues each side
The full ranking holds about 33,000 sequences; the median of “E-score (dimensionless, -0.5 to 0.5)” is about -0.046, and the highest 2% start at about 0.36. This excerpt belongs to a sample that is enriched for the highest values.
recorded-endpoint: PBM E-score of 8-mer

{"ordered-residues": "ATGCGGGA", "quantitative-readout": -0.193}
{"ordered-residues": "ATAGTGTG", "quantitative-readout": 0.388}
{"ordered-residues": "GACTGTGC", "quantitative-readout": -0.124}
{"ordered-residues": "ACCTGTGC", "quantitative-readout": 0.151}
{"ordered-residues": "GCGCGTCA", "quantitative-readout": 0.265}
{"ordered-residues": "GTGCGTCA", "quantitative-readout": 0.187}
{"ordered-residues": "ACCTGTCG", "quantitative-readout": 0.37}
{"ordered-residues": "AGAGTGTA", "quantitative-readout": 0.0671}
{"ordered-residues": "CACACTTA", "quantitative-readout": 0.447}
{"ordered-residues": "ACTTAATG", "quantitative-readout": -0.1}
{"ordered-residues": "AGGCTAAT", "quantitative-readout": -0.255}

====

- Tested on: SpTbr T-box DNA-binding domain (GST fusion);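 note: protein at 200 nM in PBS on universal double-stranded arrays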
- Sequence: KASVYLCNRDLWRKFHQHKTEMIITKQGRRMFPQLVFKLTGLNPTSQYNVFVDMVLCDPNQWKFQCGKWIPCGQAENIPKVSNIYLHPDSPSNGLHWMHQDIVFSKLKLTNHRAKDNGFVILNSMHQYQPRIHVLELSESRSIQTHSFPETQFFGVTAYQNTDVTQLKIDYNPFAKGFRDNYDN
- experimental-details: PBM E-score of 8-mer (E-score (dimensionless, -0.5 to 0.5)); higher = stronger binding preference
- condition-description: target sequence: T-box / the construct has about 5 more residues each side
In all, about 33,000 sequences were measured (“E-score (dimensionless, -0.5 to 0.5)”: median about -0.046, highest 2% from about 0.36 on). Many of the other results were omitted from the sample, so the highest values are more common in it than they were.
# label = bin(measured PBM E-score of 8-mer), where bins are LOW: < 0.02; MID: ≥ 0.02 and < 0.3; HIGH: ≥ 0.3

{"ordered-residues": "AACACCAC", "system-name": "SpTbr T-box DNA-binding domain (GST fusion)", "class-label": "HIGH"}
{"ordered-residues": "ATGTCACC", "system-name": "SpTbr T-box DNA-binding domain (GST fusion)", "class-label": "HIGH"}
{"ordered-residues": "GACACCAA", "system-name": "SpTbr T-box DNA-binding domain (GST fusion)", "class-label": "HIGH"}
{"ordered-residues": "ACCTCACC", "system-name": "SpTbr T-box DNA-binding domain (GST fusion)", "class-label": "MID"}
{"ordered-residues": "GAGTGTAA", "system-name": "SpTbr T-box DNA-binding domain (GST fusion)", "class-label": "MID"}
{"ordered-residues": "ATGCTTCG", "system-name": "SpTbr T-box DNA-binding domain (GST fusion)", "class-label": "LOW"}
{"ordered-residues": "AGGTCTTA", "system-name": "SpTbr T-box DNA-binding domain (GST fusion)", "class-label": "LOW"}
{"ordered-residues": "AAGCTTAC", "system-name": "SpTbr T-box DNA-binding domain (GST fusion)", "class-label": "LOW"}
{"ordered-residues": "ACACCTAC", "system-name": "SpTbr T-box DNA-binding domain (GST fusion)", "class-label": "HIGH"}
{"ordered-residues": "CGCACCAG", "system-name": "SpTbr T-box DNA-binding domain (GST fusion)", "class-label": "MID"}
{"ordered-residues": "AGCCAGAA", "system-name": "SpTbr T-box DNA-binding domain (GST fusion)", "class-label": "LOW"}
{"ordered-residues": "AAGGGCCA", "system-name": "SpTbr T-box DNA-binding domain (GST fusion)", "class-label": "LOW"}
{"ordered-residues": "CTTTCGCC", "system-name": "SpTbr T-box DNA-binding domain (GST fusion)", "class-label": "LOW"}
{"ordered-residues": "CAGTTCTC", "system-name": "SpTbr T-box DNA-binding domain (GST fusion)", "class-label": "MID"}
{"ordered-residues": "CACACCAG", "system-name": "SpTbr T-box DNA-binding domain (GST fusion)", "class-label": "HIGH"}
{"ordered-residues": "CGCTCACC", "system-name": "SpTbr T-box DNA-binding domain (GST fusion)", "class-label": "MID"}
{"ordered-residues": "CTTTCGCA", "system-name": "SpTbr T-box DNA-binding domain (GST fusion)", "class-label": "HIGH"}
{"ordered-residues": "GTTTCGCA", "system-name": "SpTbr T-box DNA-binding domain (GST fusion)", "class-label": "HIGH"}
{"ordered-residues": "ACGCATGG", "system-name": "SpTbr T-box DNA-binding domain (GST fusion)", "class-label": "LOW"}
{"ordered-residues": "CTTTTTTC", "system-name": "SpTbr T-box DNA-binding domain (GST fusion)", "class-label": "LOW"}
{"ordered-residues": "CACCACAC", "system-name": "SpTbr T-box DNA-binding domain (GST fusion)", "class-label": "HIGH"}
{"ordered-residues": "GGTTGACA", "system-name": "SpTbr T-box DNA-binding domain (GST fusion)", "class-label": "HIGH"}
{"ordered-residues": "AGTTGACA", "system-name": "SpTbr T-box DNA-binding domain (GST fusion)", "class-label": "HIGH"}

====

- Test system: SpTbr T-box DNA-binding domain (GST fusion);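 note: protein at 200 nM in PBS on universal double-stranded arrays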
- Sequence: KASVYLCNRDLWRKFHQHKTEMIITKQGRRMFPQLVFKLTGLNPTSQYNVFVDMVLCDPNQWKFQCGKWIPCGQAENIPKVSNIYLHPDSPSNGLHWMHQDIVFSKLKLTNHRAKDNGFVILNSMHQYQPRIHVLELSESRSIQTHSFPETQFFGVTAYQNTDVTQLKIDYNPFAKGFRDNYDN
- experimental-details: PBM E-score of 8-mer (E-score (dimensionless, -0.5 to 0.5)); Tbr is Tbrain of the sea star Patiria miniata (Pm) or the sea urchin Strongylocentrotus purpuratus (Sp); higher = stronger binding preference
- condition-description: target sequence: T-box / the construct has about 5 more residues each side
Whole data set: some 33,000 sequences, median “E-score (dimensionless, -0.5 to 0.5)” near -0.046, cut for the highest 2% near 0.36. The sample as a whole holds a higher share of the highest values than the screen did.
Label yes when PBM E-score of 8-mer is at or above 0.2; anything below gets no.

{"ordered-residues": "AAACAGCT", "class-label": "no"}
{"ordered-residues": "AGTGTGAT", "class-label": "yes"}
{"ordered-residues": "GACCTACA", "class-label": "no"}
{"ordered-residues": "CTTGTCAA", "class-label": "yes"}
{"ordered-residues": "CCCCTTCG", "class-label": "no"}
{"ordered-residues": "CGCAATTC", "class-label": "no"}
{"ordered-residues": "CACCTACA", "class-label": "yes"}
{"ordered-residues": "GATTCACA", "class-label": "yes"}
{"ordered-residues": "ATTTCGCC", "class-label": "no"}
{"ordered-residues": "CATCACAG", "class-label": "no"}
{"ordered-residues": "GATGTGAC", "class-label": "yes"}
{"ordered-residues": "GGTCACAC", "class-label": "yes"}
{"ordered-residues": "GTGTGGAA", "class-label": "yes"}
{"ordered-residues": "GAATTTCA", "class-label": "no"}
{"ordered-residues": "TCGCGAGA", "class-label": "yes"}
{"ordered-residues": "ATGTGTGC", "class-label": "yes"}
{"ordered-residues": "GATTCGCA", "class-label": "yes"}
{"ordered-residues": "ATTTCGCA", "class-label": "yes"}
{"ordered-residues": "CCCGATAA", "class-label": "no"}
{"ordered-residues": "ATTGTCAC", "class-label": "yes"}
{"ordered-residues": "AGTCACAG", "class-label": "no"}
{"ordered-residues": "GATTCAGA", "class-label": "no"}
{"ordered-residues": "AACCTTCG", "class-label": "no"}
{"ordered-residues": "CATTCACG", "class-label": "yes"}
{"ordered-residues": "AAGTTTAT", "class-label": "no"}
{"ordered-residues": "CAAGGTCC", "class-label": "no"}
{"ordered-residues": "ATGTGGGA", "class-label": "yes"}
{"ordered-residues": "AATCACAA", "class-label": "yes"}
{"ordered-residues": "AGTGTGAC", "class-label": "yes"}
{"ordered-residues": "CCTGTCAC", "class-label": "yes"}
{"ordered-residues": "AACCTACC", "class-label": "no"}
{"ordered-residues": "TATTCGAA", "class-label": "no"}
{"ordered-residues": "ACGCGAGA", "class-label": "yes"}
{"ordered-residues": "CTCGGGTC", "class-label": "no"}
{"ordered-residues": "GTAGAGAC", "class-label": "no"}
{"ordered-residues": "AATCACAG", "class-label": "no"}
{"ordered-residues": "GCGCGAGA", "class-label": "yes"}
{"ordered-residues": "GCCGTTTA", "class-label": "no"}
{"ordered-residues": "AATTCACG", "class-label": "yes"}
{"ordered-residues": "ATTTGGCG", "class-label": "no"}
{"ordered-residues": "CGCACCAA", "class-label": "yes"}
{"ordered-residues": "ACATATCC", "class-label": "no"}
{"ordered-residues": "ATTGTCAG", "class-label": "no"}
{"ordered-residues": "TACCTACA", "class-label": "no"}
{"ordered-residues": "GGTGTGAC", "class-label": "yes"}
{"ordered-residues": "ATTGTGAG", "class-label": "yes"}
{"ordered-residues": "TATTCGCA", "class-label": "yes"}
{"ordered-residues": "AGACTTAT", "class-label": "no"}
{"ordered-residues": "ATAGATGA", "class-label": "no"}
{"ordered-residues": "GATCACGC", "class-label": "yes"}
{"ordered-residues": "CACCTTCG", "class-label": "yes"}
{"ordered-residues": "AATCTCAC", "class-label": "yes"}
{"ordered-residues": "CTTGTCAC", "class-label": "yes"}
